# PROTOCOL_TEXT: Pharmacokinetic study
# Format: in vivo, C57BL/6 male mice
# CONDITION_INFO: male, C57BL/6, mouse, plasma, po; single dose 10 mg/kg p.o.; read-out: plasma concentration at 24h post dosing
OUTCOME_MEASURE: concentration at 24 h

COMPOUND	OUTCOME_MEASURE	RECORDED_VALUE
CC(=O)c1c(C)c2cnc(Nc3ccc(N4CCN(CC5CCN(c6ccc7c(c6)C(=O)N(C6CCC(=O)NC6=O)C7=O)CC5)CC4)cn3)nc2n(C2CCCC2)c1=O (stereo not shown)	concentration at 24 h	~100 nM

* * *

# PROTOCOL_TEXT: Pharmacokinetic study
# Format: in vivo, C57BL/6 male mice
# CONDITION_INFO: male, C57BL/6, mouse, plasma, ip; single dose 25 mg/kg i.p.; read-out: plasma concentration at 24h post dosing
OUTCOME_MEASURE: concentration at 24 h

RECORD_SMILES	RECORDED_VALUE
CC(=O)c1c(C)c2cnc(Nc3ccc(N4CCN(CCCCC(=O)N[C@H](C(=O)N5C[C@H](O)C[C@H]5C(=O)N[C@@H](C)c5ccc(-c6scnc6C)cc5)C(C)(C)C)CC4)cn3)nc2n(C2CCCC2)c1=O	~100 nM
